assay: adipocyte viability effects, profiling panel, cell-based, 3T3-L1 adipocytes, calcein-AM fluorescence, 48 h, basal (AID 1163); settings: 3T3-L1 adipocytes viability, higher = more signal; also: test concentration not given here
Give z-score for every item shown.
Give bare numbers.

compound	z-score
CCN1C(=O)[C@H]2[C@H]3[C@H](O)[C@H](O)CC(=NOCC=C(C)CCC=C(C)C)[C@@H]3CC[C@H]2C1=O	0.28
Cc1cc2c(nc1C)CCCCN2CC(O)CN1CCCc2nc(-c3ccc(Br)cc3)ccc21 (stereo not given)	-0.829
CC(=O)OC[C@H]1O[C@H](C#CCCc2ccccc2)C=C[C@@H]1OC(C)=O	0.292

Dear colleague, could you send me z-score for each of the items below? Thanks.
1. Cc1ccc2[nH]c3nc(CCCn4ccnc4-c4ccccc4)nnc3c2c1
2. CC(CCC(=O)OC[C@H]1O[C@H](C#Cc2ccccc2)C=C[C@@H]1Oc1ccc(C)cc1)=NO[C@@H](C)c1cc(-c2c(C)cc(C)cc2C)no1

### Response
1. 0.339
2. 0.777

----------
experiment: CREB reporter modulators without forskolin, primary screen, cell-based, PC12, CRE-LacZ reporter, unstimulated (AID 1145); details: no forskolin, luminescence, 4.5 h, higher = more signal, called active from +8 up or from −8 down
readoutKind: z-score
Give bare numbers.

Example results:
compound	resultValue
C[C@]12CCC3c4ccc(OCC5CO5)cc4CCC3C1CC[C@@H]2O (some centres not stated)	2.75
COC(=O)[C@H](C)NC(=O)CCC1CC(OC(=O)NCCc2ccc(F)cc2)CC2(CCCC(COC(=O)NCC3CCCCC3)O2)O1 (some centres not stated)	0.819
CCOC(=O)[C@H](Cc1ccccc1)NC(=O)CCC1CC(OC(=O)NCCc2ccc(F)cc2)CC2(CCCC(COC(=O)NCCOc3ccccc3)O2)O1 (some centres not stated)	-0.253
CC(C)=CCCC(C)=CCON=C1C[C@@H](O)[C@@H](O)[C@@H]2[C@@H]3C(=O)N(Cc4ccc5c(c4)OCO5)C(=O)[C@@H]3CC[C@@H]12	0.252
CC(C)=CCCC(C)=CCON=C1[C@H]2CCn3c(=O)n(-c4ccccc4)c(=O)n3[C@H]2[C@H](O)[C@@H]2O[C@H]12	-0.473
C[C@@H]1C=CCC(=O)OC[C@H](C)C(=O)N[C@@H](Cc2ccccc2)C(=O)OC1	1.43

### Prompt Respond only with z-score recorded for `COC(=O)[C@@H]1CC[C@H](C)[C@@H](c2ccc(Br)cc2)N1C[C@H](O)CN=[N+]=[N-]`
### Response -0.522

----------
biological target: Carbonic anhydrase 2 (Homo sapiens); experiment: CAII small-molecule binders, profiling panel, biochemical, small-molecule microarray, Alexa647-labelled CAII (AID 1122); details: CAII-A647 binding fluorescence, higher = more signal
Give composite z-score for every item shown.

molecule	composite z-score
COC(=O)CC=C[C@@H](C)[C@@H](C=NOC(C)CN1CCCCc2nc(C)c(C)cc21)OC (stereo partly drawn)	0.301
CO[C@@H]1[C@H](O)CO[C@H]1C=Cc1ccccc1	0.405
C[C@H]1CC[C@H]2C(=O)O[C@H](CO)CN2[C@@H]1c1ccc(Br)cc1	-0.11
CC(=O)OC[C@H]1O[C@H](CC=NOCC[C@@H]2C=C[C@H](OC(C)=O)[C@@H](COC(C)=O)O2)C=C[C@@H]1OC(C)=O	-0.146
CO[C@@H]1C=CCC(=O)N[C@@H](C)C(=O)OC[C@@H](OC)[C@H](C)C=CCC(=O)OC[C@H]1C	-0.689

Dear colleague, could you send me composite z-score for each of the items below? Thanks.
1. CCOC(=O)[C@H](Cc1ccccc1)NC(=O)CCC1CC(OC(=O)NCc2cccc3ccccc23)CC2(CCCC(COC(=O)NCCc3ccc(Cl)cc3)O2)O1 (stereo partly drawn)
2. C[C@@H]1CC[C@@H](C(=O)O)N[C@H]1c1cccc(N2CCOCC2)c1
3. COC(=O)[C@H](C)NC(=O)CCC1CC(OC(=O)NCCc2ccc(F)cc2)CC2(CCCC(COC(=O)NCCc3ccccc3OC)O2)O1 (stereo partly drawn)

### Response
[0.349, 0.295, 0.244]

----------
Give composite z-score for every item shown.
assay: compound binding in COS7 lysate, probe aLAP1, primary screen, cell lysate, small-molecule microarray (AID 1124); conditions: probe aLAP1, fluorescence, higher = more signal;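 also: lysate comes from COS7 cells expressing LAP1 and is applied at 0.3 µg/mL; score merges spot fluorescence near 667 nm with signal-to-noise over triplicate slides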

Example results:
structureNotation	composite z-score
CC(C)=CCCC(C)=CCON=C1C[C@@H](O)[C@@H](O)[C@@H]2[C@@H]3C(=O)N(C4CCCCC4)C(=O)[C@@H]3CC[C@H]12	0.514
O=C1C=C[C@@H](O)[C@@H]2[C@@H]3C(=O)N(Cc4ccccc4)C(=O)[C@@H]3CC[C@@H]12	-0.139
CC(C)=CCCC(C)=CCON=C1C[C@@H](O)[C@@H](O)[C@@H]2[C@@H]3C(=O)N(Cc4ccc5c(c4)OCO5)C(=O)[C@@H]3CC[C@H]12	0.206
C[C@@H]1CC[C@H]2C(=O)O[C@@H](COc3ccc(C(C)(C)C)cc3)CN2[C@H]1c1ccc(Br)cc1	0.21

Dear colleague, could you send me composite z-score for each of the items below? Thanks.
1. CN1CCc2nc(-c3ccccc3)c(-c3ccccc3)cc2C1
2. C#CCCCON=C1C[C@@H](O)[C@@H](O)[C@@H]2[C@@H]3C(=O)N(C[C@@H]4CCCO4)C(=O)[C@@H]3CC[C@@H]12
3. O=C1C=C[C@@H](O)[C@@H]2[C@@H]3C(=O)N(Cc4ccc5c(c4)OCO5)C(=O)[C@@H]3CC[C@@H]12

### Response
1: -0.247; 2: 0.221; 3: 0.129

----------
assay: CREB reporter modulators without forskolin, primary screen, cell-based, PC12, CRE-LacZ reporter, unstimulated (AID 1145); conditions: no forskolin, luminescence, 4.5 h, higher = more signal, called active from +8 up or from −8 down
Give z-score for every item shown.
One number for each entry.

Example results:
compound	z-score
CO[C@H]1COC(=O)CC=C[C@H](C)[C@H](OC)COC(=O)[C@@H](C)NC(=O)CC=C[C@@H]1C	0.276
COC(=O)[C@H](C)NC(=O)CCC1CC(OC(=O)NCc2ccc3c(c2)OCO3)CC2(CCCC(COC(=O)NCCC(C)C)O2)O1 (some centres undefined)	-0.706
COC(=O)CC=C[C@@H](C)[C@@H](C=NOC(C)CN1CCCCc2nc(C)c(C)cc21)NS(=O)(=O)c1ccc(C)cc1 (some centres undefined)	-0.882

Consider now this further compound.
### Prompt Respond only with z-score recorded for `COC(=O)CC=C1c2ccccc2[C@H](OC)[C@H]1C`
### Response 0.478

----------
test: modulators of S6 phosphorylation in cells, primary screen, cell-based, A549, cytoblot, luminescence, serum-stimulated (AID 1158); details: A549 phospho-S6 cytoblot, 5 h, higher = more signal;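 also: serum-stimulated A549 lung adenocarcinoma cells; signal is phosphorylated S6 detected by cytoblot immunostaining with HRP secondary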
Give z-score for every item shown.
Give bare numbers.

Example results:
molecule	z-score
COC(=O)CC=C[C@@H](C)[C@@H](C=NOC[C@@H](C)[C@H](OCc1ccccc1)C(C)C)OC	0.391
COC(=O)[C@H](C)NC(=O)CCC1CC(OC(=O)NCc2cccc3ccccc23)CC2(CCCC(COC(=O)NCCc3ccccc3OC)O2)O1 (some centres undefined)	-0.353
O=C1[C@H]2[C@H]3[C@H](O)[C@H](O)CC(=NO[C@@H]4O[C@H](CO)[C@@H](O)[C@H](O)[C@H]4O)[C@@H]3CC[C@H]2C(=O)N1c1cccc(Oc2ccccc2)c1	-0.263

Consider now this further molecule.
### Prompt Respond only with z-score recorded for CCOC(=O)[C@H](CC(C)C)NC(=O)CCC1CC(OC(=O)NCCc2ccc(F)cc2)CC2(CCCC(COC(=O)NCCCN3CCCC3=O)O2)O1 (some centres undefined)
### Response 0.181

----------
system: Fibrinogen (Alexa647-labelled); assay: fibrinogen binders on compound microarrays, profiling panel, artefact control for SMM control-protein annotation, biochemical, small-molecule microarray, 635/667 nm fluorescence (AID 1131); conditions: fibrinogen-A647 binding fluorescence, higher = more signal;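 also: z-score merges 667 nm fluorescence with per-spot signal-to-noise over triplicate slides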
Give composite z-score for every item shown.
Give bare numbers.

molecule	resultValue
CC(=O)OC[C@H]1O[C@H](CC=NOC[C@@H](O)COCc2ccco2)C=C[C@@H]1OC(C)=O	-0.629
CC(C)[C@@H](OCc1ccccc1)[C@H](C)CON=C1[C@H]2CCn3c(=O)n(-c4ccccc4)c(=O)n3[C@H]2[C@H](O)[C@@H]2O[C@H]12	-0.0016
C[C@@H](c1ccccc1)N1C(=O)[C@H]2[C@H]3[C@H](O)[C@H](O)CC(=NOCc4ccccc4)[C@@H]3CC[C@H]2C1=O	0.0844
COc1ccc(COC(=O)NN=C2C[C@@H](O)[C@@H](O)[C@@H]3[C@@H]4C(=O)N(C(C)(C)C)C(=O)[C@@H]4CC[C@@H]23)cc1	0.874
O=C1C=C[C@@H](O)[C@@H]2[C@@H]3C(=O)N(Cc4ccccc4)C(=O)[C@@H]3CC[C@@H]12	0.394

Dear colleague, could you send me composite z-score for each of the items below? Thanks.
1. CC(C)=NOC(C)CN1CCCCc2nc(C)c(C)cc21 (stereo unspecified)
2. COCCNC(=O)OCC1CCCC2(CC(OC(=O)NCc3cccc4ccccc34)CC(CCC(=O)N[C@@H](C)C(=O)OC)O2)O1 (stereo partly specified)
3. CC[C@@H](c1ccccc1)n1c(=O)n2n(c1=O)[C@H]1[C@H](O)[C@@H]3O[C@@H]3C(=NOCc3ccccc3)[C@H]1CC2
4. COC(=O)CC=C[C@@H](C)[C@@H](C=NOC[C@@H](O)COCc1ccco1)NS(=O)(=O)c1ccc(C)cc1
5. CC(C)=NO[C@@H](C)c1cn([C@H](CO)Cc2ccccc2)nn1

### Response
1. 0.755
2. 0.912
3. 0.931
4. -1.03
5. 0.17
